Test system: IFNβ promoter
test-description: cells
Format: cell-based, human
experimental-conditions: Homo sapiens, HEK-293T; 293T cells, Sendai virus; read-out: IC50 for inhibition of virus induced IFNβ expression
assay-endpoint: IC50 (µM)
Numbers only, in µM.

IC50 reading for C[C@@H]1O[C@@H](O[C@H]2C[C@@H](O)[C@]3(CO)[C@H]4[C@H](O)C[C@]5(C)[C@@H](C6=CC(=O)OC6)CC[C@]5(O)[C@@H]4CC[C@]3(O)C2)[C@H](O)[C@H](O)[C@H]1O : 0.0648
